- ASSAY: chemical genetic growth profiling, strain panel (AID 1159580);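 also: tested at 20 µM; growth read once vehicle control cultures reached saturation at 30 °C; 1 = growth at the plate median or of vehicle wells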
- CONDITION SUMMARY: S. cerevisiae deletion strains, growth OD, locus YOR270C, strain vph1, stronger effect = lower value
Among all 5,500 compounds or so, about 2,000 (36%) were called active. About 18% were inconclusive and are not listed. Some of the results follow.
Sorting guide: entries reporting normalized growth beneath 1 go in the condition met pile, the rest go in the condition not met pile.

CCOC(=O)c1oc2c(OC)c(O)cc(O)c2c(=O)c1-c1cc(OC)c(OC)c(OC)c1	condition met
O=C(OC1Cc2c(O)cc(O)cc2OC1c1cc(O)c(O)c(O)c1-c1c(C2Oc3cc(O)cc(O)c3CC2OC(=O)c2cc(O)c(O)c(O)c2)cc(O)c(O)c1O)c1cc(O)c(O)c(O)c1 (centres undefined)	condition met
CCC(Cc1c(I)cc(I)c(N)c1I)C(=O)O (centres undefined)	condition met
O=C(O)c1ccccc1Nc1cccc(C(F)(F)F)c1	condition met
Nc1ncn([C@@H]2O[C@H](CO)[C@@H](O)[C@H]2O)c(=O)n1	condition met
CC(=O)Nc1cc([As](=O)(O)O)ccc1O	condition not met
Nc1ncnc2c1ncn2[C@@H]1O[C@H](CO)[C@@H](O)[C@H]1O	condition met
COC(C)(C)CCC[C@H](C)C/C=C/C(C)=C/C(=O)OC(C)C	condition met
CN(C)CCOc1ccc(/C(=C(/CCCl)c2ccccc2)c2ccccc2)cc1	condition met
NCCCC[C@H](N[C@@H](CCc1ccccc1)C(=O)O)C(=O)N1CCC[C@H]1C(=O)O	condition not met

// switching to the query compound
Data request: Strictly below 1 in normalized growth? COc1ccc(C(Cl)=C(c2ccc(OC)cc2)c2ccc(OC)cc2)cc1
Data returned: condition not met

* * *

- ASSAY: chemical genetic growth profiling, strain panel (AID 1159580)
- CONDITION SUMMARY: S. cerevisiae deletion strains, growth OD, locus YDR318W, strain mcm21, stronger effect = lower value
The campaign covered roughly 5,500 compounds. About 2,000 (36%) were called active. Roughly 18% stayed inconclusive and do not appear here. The list shows a part of the results.
# normalized growth values compiled below
Note: the reply should be a number with no unit written.

// below: answered compounds
C=CC(C1=CC(=O)C=CC1=O)c1ccccc1 (stereo not given)	0.953
CCC[C@H]1CC2=C(C[C@@H](CC)CC3=C1C(=O)OC3=O)C(=O)OC2=O	0.998
O=C(O)CCCCC1CCSS1 (stereo not given)	0.992
O=C1C=CC2=C3c4cc(O)c(O)cc4C[C@@]3(O)COC2=C1	0.998
CC(=O)Nc1cc([As](=O)(O)O)ccc1O	1
CC(=O)O[C@@H]1CC2C(C)(C)C(=O)CC[C@]2(C)C2CC[C@]3(C)C(=CC(=O)O[C@H]3c3ccoc3)[C@@]21C (stereo not given in full)	0.992
CS(=O)(=O)CCCCN=C=S	0.816
O=[N+]([O-])c1ccc(O)c([N+](=O)[O-])c1	0.727

Data request: Which normalized growth reading was recorded for the compound CC(C)(C)NCC(O)c1ccccc1Cl (stereo not given) ?
Data returned: 1

Data request: Field request: normalized growth | item: Nc1ccc(S(=O)(=O)Nc2ccc(Cl)nn2)cc1
Data returned: 1

Data request: Report normalized growth for O=[N+]([O-])c1cc(O)c(O)c([N+](=O)[O-])c1 please.
Data returned: 0.987

Data request: Any idea what normalized growth was measured for COC(=O)C[C@H]1C(C)(C)C(=O)[C@@H]2CC3=C4CC(=O)O[C@@H](c5ccoc5)[C@]4(C)CCC3[C@@]1(C)C2=O (stereo not given in full) ?
Data returned: 1.01

Data request: Look up normalized growth: Nc1ncn([C@@H]2O[C@H](CO)[C@@H](O)[C@H]2O)c(=O)n1
Data returned: 0.999

Data request: Return reported normalized growth; argument: Oc1c(Br)cc(Br)c2cccnc12
Data returned: 0.071

Data request: Recorded normalized growth of Nc1ccc(C(=O)NCC(=O)O)cc1 , please.
Data returned: 1.02

Data request: Which normalized growth is reported for this compound? N[C@@H](Cc1ccc(O)c(O)c1)C(=O)O
Data returned: 0.987

Data request: Bench note: what normalized growth did Nc1ncnc2c1ncn2C1C[C@H](O)[C@@H](CO)O1 (stereo not given in full) show?
Data returned: 0.968

Data request: Look up normalized growth for this compound: CC(=O)O[C@@H]1C[C@@]2(C)[C@H](c3ccoc3)C[C@H]3O[C@]32[C@]2(C)C(=O)C(O)=C3C(C)(C)C(=O)C=C[C@]3(C)C12 (stereo not given in full)
Data returned: 0.844

Data request: What value of normalized growth has been recorded for this entry: CCCCC(CC)CN1CN(CC(CC)CCCC)CC(C)(N)C1 (stereo not given)
Data returned: 0.471

Data request: // returns reported normalized growth for input Nc1ncnc2c1ncn2[C@@H]1O[C@H](CO)[C@@H](O)[C@H]1O
Data returned: 0.973

Data request: Find the recorded normalized growth belonging to CCCCC1=NC2(CCCC2)C(=O)N1Cc1ccc(-c2ccccc2-c2nn[nH]n2)cc1 and report it.
Data returned: 1

Data request: So what does the record say about normalized growth for C=C[C@@H](C1=CC(=O)C(OC)=C(OC)C1=O)c1ccccc1 ?
Data returned: 0.181

Data request: Given the compound COc1cc(C(=O)NCc2ccc(OCCN(C)C)cc2)cc(OC)c1OC , what is its reported normalized growth?
Data returned: 0.992

Data request: Could you tell me which normalized growth is on file for COc1cc(OC)c2c(=O)c(-c3ccccc3)c(C)oc2c1OC ?
Data returned: 0.995

Data request: Would you mind telling me what normalized growth value was observed for C=CC(C1=CC(=O)C(OC)=CC1=O)c1ccc(OC)cc1 (stereo not given) ?
Data returned: 0.843

* * *

- ASSAY: chemical genetic growth profiling, strain panel (AID 1159580);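 also: tested at 20 µM; growth read once vehicle control cultures reached saturation at 30 °C; 1 = growth at the plate median or of vehicle wells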
- CONDITION SUMMARY: S. cerevisiae deletion strains, growth OD, locus YHR027C, strain rpn1, stronger effect = lower value
Hit rate of the full screen: of about 5,500 compounds, about 2,000 (36%) were called active. Roughly 18% stayed inconclusive and do not appear here. Some of the results follow.
Below: a set of entries, each annotated with reported normalized growth.
Lab note: record the figure alone, no unit after it.

Below are worked cases with known answers.
COc1cc(C(=O)NCc2ccc(OCCN(C)C)cc2)cc(OC)c1OC	0.979
Oc1c(I)cc(Cl)c2cccnc12	0.0784
CCN(CC)CCOc1ccc(/C(=C(\Cl)c2ccccc2)c2ccccc2)cc1	0.109
O=C1CCCC2C3CC(CN12)[C@@H]1CCCCN1C3 (stereo partly drawn)	0.988
C=CC(C1=CC(=O)C=CC1=O)c1ccccc1 (stereo not drawn)	1.01
CC(C)=CCC[C@](C)(O)C1CC=C(C)CC1 (stereo partly drawn)	0.999

Data request: Requested read-out: normalized growth. Entry: CO[C@H]1/C=C/O[C@@]2(C)Oc3c(C)c(O)c4c(O)c(c(/C=N/N5CCN(C)CC5)c(O)c4c3C2=O)NC(=O)/C(C)=C\C=C\C(C)[C@H](O)[C@@H](C)[C@@H](O)[C@@H](C)[C@@H](OC(C)=O)[C@@H]1C (stereo partly drawn)
Data returned: 1.02

Data request: Name the reported normalized growth value associated with the molecule C=CC(C1=CC(=O)C(OC)=CC1=O)c1ccccc1 (stereo not drawn)
Data returned: 0.92

Data request: If you can, please state the reported normalized growth value of O=c1[nH]c(=O)n(C2C[C@@H](O)[C@@H](CO)O2)cc1F (stereo partly drawn) .
Data returned: 0.98

* * *

- ASSAY: chemical genetic growth profiling, strain panel (AID 1159580);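 also: tested at 20 µM; growth read once vehicle control cultures reached saturation at 30 °C; 1 = growth at the plate median or of vehicle wells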
- CONDITION SUMMARY: S. cerevisiae deletion strains, growth OD, locus YNL153C, strain GIM3, stronger effect = lower value
Screen size: about 5,500 compounds; about 2,000 (36%) were called active. Another 18% or so got no clear call; they are omitted. The list shows a part of the results.
EXPERIMENTAL READOUT: normalized growth
Lab note: write the figure by itself, no unit.

Would you please look over these solved cases?
O=C(Nc1ccc(C(F)(F)F)cc1)Nc1ccccc1C(=O)O	0.977
Cc1ccc(/C(=C\CN2CCCC2)c2ccccn2)cc1	1.01
CCn1nc(C)c(Br)c1-c1nc(-c2ccc(C(F)(F)F)cc2)no1	0.985
CCCCCCCC/C=C\CCCCCCCC(=O)NCCO	0.981
O=C(NC(=S)NCc1ccncc1)c1ccccc1	1

Data request: Reported normalized growth for O=C(CCNNC(=O)c1ccncc1)NCc1ccccc1 : what is it?
Data returned: 0.99

Data request: Given the compound CC(C)c1ccc(NC(=S)NC(=O)c2ccc(C(F)(F)F)cc2)cc1 , what is its reported normalized growth?
Data returned: 0.989

Data request: Which normalized growth is reported for this compound? Nc1ccc(S(=O)(=O)Nc2ccccn2)cc1
Data returned: 1.01

* * *

- ASSAY: chemical genetic growth profiling, strain panel (AID 1159580);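 also: tested at 20 µM; growth read once vehicle control cultures reached saturation at 30 °C; 1 = growth at the plate median or of vehicle wells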
- CONDITION SUMMARY: S. cerevisiae deletion strains, growth OD, locus YOL012C, strain htz1
About 2,000 (36%) of roughly 5,500 compounds were called active. Another 18% or so got no clear call; they are omitted. No stated cut-off is given here; in the data, active means normalized growth mostly below about 0.91 (no sharp cut-off); inconclusive means no clear call, values can overlap the other calls; inactive means mostly above about 0.92. The list shows a part of the results.
Output constraint: value belongs to active, inactive

Some solved cases for reference:
COc1c2c(cc3c1OCO3)CCN(C)C2	inactive
CCCC(C)C1(CC)C(=O)N=C(S)NC1=O (configuration not stated)	inactive
O=C1C=CC2=C3c4cc(O)c(O)cc4C[C@@]3(O)COC2=C1	inactive
Nc1nc2c(ncn2C2C[C@H](O)[C@@H](CO)O2)c(=O)[nH]1 (some centres not stated)	active
Cc1ccc2cc3c(ccc4ccccc43)c3c2c1CC3	inactive
CC(=O)Nc1cc([As](=O)(O)O)ccc1O	inactive
COc1cc(OC)c2c(=O)c(-c3ccccc3)c(C)oc2c1OC	inactive
CCN(CC)CCNC(=O)c1cc(S(C)(=O)=O)ccc1OC	inactive

Data request: Tell me the assay call for CC(C)=CCC[C@](C)(O)C1CC=C(C)CC1 (some centres not stated) please.
Data returned: inactive

Data request: Dear colleague, could you share the recorded outcome for COC(=O)C[C@H]1C(C)(C)C(=O)[C@@H]2CC3=C4CC(=O)O[C@@H](c5ccoc5)[C@]4(C)CCC3[C@@]1(C)C2=O (some centres not stated) when you have a moment?
Data returned: inactive

Data request: What classification did C=C[C@](C)(O)CCC=C(C)C end up with in this test?
Data returned: inactive

Data request: Tell me the assay call for CC1(C)C(=O)C=C[C@@]2(C)C1=C(O)C(=O)[C@]1(C)C2CC[C@@]2(C)[C@H](c3ccoc3)C[C@H]3O[C@]321 (some centres not stated) please.
Data returned: inactive

Data request: Give the logged outcome of this assay for the following compound: O=C(O)CCCCC1CCSS1 (configuration not stated)
Data returned: inactive

Data request: What did this assay record as the result for NCC(CC(=O)O)c1ccc(Cl)s1 (configuration not stated) ?
Data returned: inactive

Data request: Lab log entry: CC1(C)CC2C1(O)CCC1(C)C=CC(O)C21CO (configuration not stated) — outcome as called in the assay?
Data returned: inactive

Data request: Check the results log: what was the call for CSCCC(NC=O)C(=O)NC(C)C(=O)O (configuration not stated) ?
Data returned: inactive

Data request: Per the assay record, what outcome was assigned to CCOP(=S)(OCC)SCn1c(=O)oc2cc(Cl)ccc21 ?
Data returned: inactive

All values here come from PubChem BioAssay AID1159580.
